- System: SNB-19 CNS
- method: NCI tumour cell line growth inhibition, 48 h
Reported TGI by item:

                                   compound    result
0  CC(CO)(CO)N1C(=O)C2C3c4ccccc4C(c4ccccc43)C2C1=O (stereo not given)  > 100 µM
1  C=Cc1ccccc1C1C(C(=O)OCC)=C(C)N=C2OC(C(=O)OC)C(=O)N21 (stereo not given)  > 100 µM

Give SNB-19 CNS TGI for CC(C)CC(=O)[O-].CC(C)CC(=O)[O-].N.N.N.N.[Co+3].[O-][Cl+3]([O-])([O-])O.[O-][Cl+3]([O-])([O-])[O-]
> 100 µM

Query for SNB-19 CNS: what TGI does the record show for COc1ccc(NC(=O)CC(=O)NN2C(=O)/C(=C/c3ccc(N(CCC#N)CCC#N)cc3C)N=C2/C=C\c2ccccc2)cc1 ?
> 100 µM

Form: Entry = N#Cc1c(N)c2c(c(-c3ccccc3)c1-c1ccccc1)C(=O)N(NC(=S)Nc1ccccc1)C2=O | System = SNB-19 CNS | TGI = ____
> 100 µM

----------
- Test system: HS 578T breast
- method: NCI tumour cell line growth inhibition, 48 h
Below, each entry is listed with its recorded TGI.

// solved cases for TGI follow
>>> print(df.to_string())
                               query_smiles    result
0           CCOP(=O)(OCC)/C(C#N)=C/c1nccn1C  > 100 µM
1         N#Cc1nc(/C=C/c2nc(C#N)c(N)o2)oc1N   > 10 µM
2  O=C(O)CCC[C@]1(O)O[C@@]2(CCCC2=O)[C@]2(O)CCC[C@@]21O  > 100 µM
3  O=C1C(=C2SC(c3ccccc3)(c3ccccc3)c3ccccc32)C(=O)c2ccccc21  > 100 µM

Query: TGI; subject: O=c1ccc2[n+]([O-])c3ccc(O)cc3oc-2c1
> 54.1 µM

----------
- Test system: A498 renal
- method: NCI tumour cell line growth inhibition, 48 h
Where a SMILES comes first, the peptide text is derived from it. [ ]: non-standard residue; d: D form. The star is where a group is joined. ξ: configuration not given here. ξHyp = O=C(O)C1CC(O)CN1; Cbz = O=C(OCc1ccccc1)*
# key: entry, value: TGI

In [3]: df
Out[3]:
                               compound    result
0  O=C1CC2C=CC1C2CO (centres undefined)  > 100 µM

Can you look up the measured TGI of CCO/C(O)=C(/C(=N)N1CCOCC1)C(=O)Nc1cccc(Cl)c1 for me?
> 100 µM

What TGI value was documented for this compound, OC(Cc1ccc2ccccc2n1)(C(F)(F)F)C(F)(F)F ?
> 10 µM

Look up TGI for this compound: NC(=O)CNC(=O)C1CC(O)CN1C(=O)OCc1ccccc1 (centres undefined) (Cbz-[ξHyp]-Gly-NH2)
> 100 µM

----------
- Test system: MDA-MB-231 breast
- method: NCI tumour cell line growth inhibition, 48 h
quantity kind: TGI

In [3]: df
Out[3]:
                                   compound  quantity_kind    result
0  C=Cc1ccccc1C1C(C(=O)OCC)=C(C)N=C2OC(C(=O)OC)C(=O)N21 (centres undefined)            TGI  > 100 µM
1  O=Cc1cn(CCCCCn2cc(C=O)c3ccccc32)c2ccccc12            TGI  > 100 µM
2          C/C(=N\NC(=O)c1ccccc1N)c1ccccc1O            TGI  > 100 µM

Please examine the following record next.
Notebook entry, MDA-MB-231 breast assay: TGI of Cc1cnc(NC2CCOCC2)nc1-n1cnc(C(=O)N[C@H](CN)c2cc(F)cc(Cl)c2)c1 = ?
> 30.6 µM

----------
- Test system: SK-MEL-28 melanoma
- method: NCI tumour cell line growth inhibition, 48 h; in the data active = GI50 below about 0.43 µM; inactive = the rest
Select the correct class. Options are 1 (active), -1 (inactive) and nothing else.

compound	class name
C=C1C(=O)O[C@H]2[C@H]1CC/C(COC(=O)NCc1c[nH]c3ccc(Br)cc13)=C\CC[C@@]1(C)O[C@@H]21	-1
Cc1oc2nc[nH]c(=O)c2c1C(=O)/C=C/c1ccc(Br)cc1	-1
Cc1ccc(/C(=C/C=C(/C#N)C(N)=O)Sc2ncnn2C)cc1	-1
CCOC(=O)C#Cc1c(C(=O)OCC)nnn1Cc1ccc(C(F)(F)F)cc1	-1
C=C1C(C(O)C[C@H](C)C2O[C@@]3(CCCCO3)CCC2C)O[C@@H]2CCC3(CCC(/C=C/[C@@H](C)C4CC(C)=CC5(O4)O[C@H](C[C@](C)(O)C(=O)O)CCC5O)O3)OC2[C@@H]1O (stereo partly specified)	1

Hello, I am checking results. What call was entered for Oc1ccc(Cl)cc1-c1cc(-c2ccc(Cl)cc2)n[nH]1 ?
-1

----------
- System: OVCAR-8 ovarian
- method: NCI tumour cell line growth inhibition, 48 h
quantity kind: TGI

Answered examples (2):
In [3]: df
Out[3]:
                                   molecule      measured_on    result
0  CN(C)CCNC(=O)c1cccc(NC(=O)c2ccccc2)c1[N+](=O)[O-]  OVCAR-8 ovarian  > 100 µM
1  O=c1[nH]c2c3ccncc3cc(-c3cccc(Cl)c3)c2c2cnccc12  OVCAR-8 ovarian  > 100 µM

Would you kindly look at the next entry?
For COc1cccc(C2c3cc4c(cc3OC(NNc3ccccc3)C2C)OCO4)c1OC (stereo not drawn) , what is its reported TGI?
> 100 µM

----------
- Test system: HCT-116 colon
- method: NCI tumour cell line growth inhibition, 48 h
quantity kind: TGI

Recorded TGI, per entry:
>>> df
                                   compound  quantity_kind    result
0  O=C(O)c1ccccc1NS(=O)(=O)c1ccc([N+](=O)[O-])cc1            TGI  > 100 µM
1  CC1(C)OC(CCC#N)CN1C(=O)OCc1ccccc1 (stereo not drawn)            TGI  > 100 µM

Now take the following compound into account.
Test system HCT-116 colon; read-out TGI; what value for CN1C(=O)C23CC4(C56CC78SSC(CO)(C(=O)N7C5Nc5ccccc56)N(C)C8=O)c5ccccc5NC4N2C(=O)C1(CO)SS3 (stereo not drawn) ?
0.313 µM

----------
- Test system: MDA-MB-435
- method: NCI tumour cell line growth inhibition, 48 h
quantity kind: TGI

A selection of reference data follows.
>>> df
                                   molecule    result
0  Nc1nc2c(ncn2C2C=CC(COS(N)(=O)=O)C2)c(=O)[nH]1 (centres undefined)  > 100 µM
1  CCNC(=O)OCC1C2=C(C(=O)C(C)=C(N)C2=O)N2CC3C(N3C)C12OC (centres undefined)  > 100 µM
2         N#Cc1nc(/C=C/c2nc(C#N)c(N)o2)oc1N   > 10 µM

Attention now shifts to the item below.
Return reported TGI; argument: Cc1cn(C2OC(CO)C(O)C2O)c(=O)[nH]c1=O (centres undefined)
> 1000 µM

----------
Reported TGI values for the following compounds.
- System: HOP-92 NSCLC
- method: NCI tumour cell line growth inhibition, 48 h

compound	quantity kind	result
NC(N)=NS(=O)(=O)c1ccc(NC(=O)c2cccc3c(Nc4ccc(S(=O)(=O)N=C(N)N)cc4)c4ccccc4nc23)cc1	TGI	> 100 µM
O=C1CCN(CCC(F)(F)C(F)(F)C(F)(F)C(F)(F)C(F)(F)C(F)(F)F)C(=S)N1CCC(F)(F)C(F)(F)C(F)(F)C(F)(F)C(F)(F)C(F)(F)F	TGI	> 100 µM
COc1c(O)ccc(C2=Cc3ccc(O)cc3OC2)c1OC	TGI	> 74 µM
NC(=O)c1cc(Cl)ccc1NC(=O)COc1ccccc1	TGI	> 100 µM
O=C1OC(CC(=O)c2ccc(Cl)cc2)C(Cl)=C1Cl (centres undefined)	TGI	> 100 µM

Please look up its TGI: O=C1c2ccccc2C(=O)c2c1ccc(O)c2O
> 100 µM

Suppose we examine the compound Cc1cccc(-c2cc(=O)c3cc(C)c(C)c(C(=O)O)c3o2)c1 ; what TGI value has been reported?
> 100 µM

----------
- System: HT29 colon
- method: NCI tumour cell line growth inhibition, 48 h
TGI values for the compounds below.

In [3]: df
Out[3]:
                                   compound  measured_on  quantity_kind    result
0  CC(CO)(CO)N1C(=O)C2C3c4ccccc4C(c4ccccc43)C2C1=O (configuration not stated)   HT29 colon            TGI  > 100 µM

What value of TGI has been reported for the following compound? C=Cc1ccccc1C1C(C(=O)OCC)=C(C)N=C2OC(C(=O)OC)C(=O)N21 (configuration not stated)
> 100 µM

What value of measured TGI is listed for N#Cc1nc(/C=C/c2nc(C#N)c(N)o2)oc1N ?
> 10 µM
